Test system: BDF1 mice, B16 melanoma ip, median survival T/C
Experiment: NCI In Vivo Anticancer Drug Screen. Data for tumor model B16 Melanoma (intraperitoneal) in B6D2F1 (BDF1) mice
Conditions: endpoint: median survival time; dose: 12.5 mg/kg/injection; schedule: Q04DX003 (ip); vehicle: Klucel (hydroxypropylcellulose) (HPC); higher = longer survival
Inconclusive results and toxic doses are left out.
PROPERTY: T/C

Past entries and their recorded results:
compound=Cc1cc(C(C)C)cc(C(C)C)c1 study_target="BDF1 mice, B16 melanoma ip, median survival T/C" endpoint_value="108 % of control"
compound=O=Nc1ccc2cc(O)ccc2c1O study_target="BDF1 mice, B16 melanoma ip, median survival T/C" endpoint_value="100 % of control"
compound=C1CC[N-]CC1.C1CC[N-]CC1.O=C(O)C(=O)O.[Pt+2] study_target="BDF1 mice, B16 melanoma ip, median survival T/C" endpoint_value="120 % of control"

Record CNC(Cc1ccccc1)C1CCCCC1 (stereo not given) has BDF1 mice, B16 melanoma ip, median survival T/C T/C equal to 100 % of control

Entry O=C(CBr)c1ccc(-c2ccccc2)cc1 under BDF1 mice, B16 melanoma ip, median survival T/C had T/C of 88 % of control
